# credit: patent US8415342B2

system: Staphylococcus hominis; experiment: MIC, CLSI broth microdilution, clinical isolates; type: cell-based; conditions: Staphylococcus hominis (N = 50)
Each entry below lists one item and its recorded MIC50 value.
Only the number, expressed in mg/L, is required.

Lookup: Record request: MIC50 value, item COc1c(N2CCNC(C)C2)c(F)cc2c(=O)c(C(=O)O)cn(C3CC3)c12 (stereo not shown)
Found: 1

Below: the item to evaluate.
Lookup: Could you tell me which MIC50 is on file for NC[C@H]1O[C@H](O[C@H]2[C@H](O)[C@@H](O[C@H]3O[C@H](CO)[C@@H](O)[C@H](N)[C@H]3O)[C@H](N)C[C@@H]2N)[C@H](N)C[C@@H]1O ?
Found: 16
